Every entry's value here was drawn from ChEMBL document CHEMBL5291721.

assayed.system: 5-hydroxytryptamine receptor 2A (Homo sapiens, UniProt P28223); further: assay procedure not described here
Sequence (P28223 whole entry): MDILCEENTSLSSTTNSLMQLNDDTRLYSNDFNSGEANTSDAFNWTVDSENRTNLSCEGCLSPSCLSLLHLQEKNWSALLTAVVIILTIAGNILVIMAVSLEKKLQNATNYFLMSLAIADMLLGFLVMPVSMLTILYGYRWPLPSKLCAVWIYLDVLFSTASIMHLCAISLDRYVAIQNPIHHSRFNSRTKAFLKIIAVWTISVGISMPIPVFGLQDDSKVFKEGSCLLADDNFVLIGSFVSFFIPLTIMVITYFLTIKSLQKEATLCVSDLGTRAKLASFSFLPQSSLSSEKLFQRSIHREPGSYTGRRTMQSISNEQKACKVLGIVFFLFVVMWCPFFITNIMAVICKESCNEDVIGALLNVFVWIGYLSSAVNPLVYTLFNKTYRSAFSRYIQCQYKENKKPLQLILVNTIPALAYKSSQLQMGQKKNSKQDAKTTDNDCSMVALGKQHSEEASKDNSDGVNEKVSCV
Format: functional, cell-based
quantity.measured: AC50

>>> readout_value("CN1CC2c3ccccc3Oc3ccc(Cl)cc3C2C1 (centres undefined)")
"> 30 µM"
>>> readout_value("CCCCOC(=O)C(=O)Nc1cccc(-c2nnn[nH]2)c1")
"> 30 µM"
>>> readout_value("CCOCC(O)COc1ccc(NC(=O)CC[S+](C)C)cc1 (centres undefined)")
"> 30 µM"
>>> readout_value("CCC(=O)c1ccc2c(c1)N(CC(C)N(C)C)c1ccccc1S2 (centres undefined)")
"> 10 µM"
>>> readout_value("O=C(C[S+]([O-])Cc1ccco1)NC/C=C\\COc1cc(CN2CCCCC2)ccn1 (centres undefined)")
"> 30 µM"
>>> readout_value("Cc1ccc(-c2ncc(Cl)cc2-c2ccc(S(C)(=O)=O)cc2)cn1")
"> 30 µM"
>>> readout_value("c1cnc2cc3c(cc2n1)[C@@H]1CNC[C@H]3C1")
"> 30 µM"
>>> readout_value("CCC[C@@]1(CCc2ccccc2)CC(O)=C([C@H](CC)c2cccc(NS(=O)(=O)c3ccc(C(F)(F)F)cn3)c2)C(=O)O1")
"> 30 µM"
>>> readout_value("C[C@@H](Cc1ccccc1)N(C)Cc1ccccc1")
"> 10 µM"
